Answer each item with its documented MIC.
# Test system: Streptococcus pyogenes C203
# Test protocol: MIC, standard agar-dilution assay
# Type: cell-based
# Test conditions: Streptococcus pyogenes C203; agar dilution; read-out: MIC
Hi! Could you send only the number? It should be in µg/mL, unit omitted.

// query Give its MIC value. Item: CCC1OC(=O)CC(O)C(C)C(OC2OC(C)C(O)C(N(C)C)C2O)C(CCOc2ccccc2)CC(C)C(=O)C=CC(C)=CC1COC1OC(C)C(OC(=O)C(NC(=O)OC(C)(C)C)c2ccccc2)C(OC)C1OC (centres unmarked)
// result 8

// query So what does the record say about MIC for CCC1OC(=O)CC(O)C(C)C(OC2OC(C)C(OC(C)=O)C(N(C)C)C2OC(C)=O)C(CCOc2ccccc2)CC(C)C(=O)C=CC(C)=CC1COC1OC(C)C(OC(=O)CCl)C(OC)C1OC (centres unmarked) ?
// result 2

// query Endpoint output: MIC of CCC1OC(=O)CC(O)C(C)C(OC2OC(C)C(O)C(N(C)C)C2O)C(CCN2CC(C)CC(C)C2)CC(C)C(=O)C=CC(C)=CC1COC1OC(C)C(OC(C)=O)C(OC)C1OC (centres unmarked) . Value?
// result 0.125

// query Need MIC, item CCC1OC(=O)CC(O)C(C)C(OC2OC(C)C(O)C(N(C)C)C2O)C(CCOc2ccccc2)CC(C)C(=O)C=CC(C)=CC1COC1OC(C)C(OC(=O)CN2CCCC2)C(OC)C1OC (centres unmarked)
// result 1

// query Query (compound): CCC(C)CN(CC)CCC1CC(C)C(=O)C=CC(C)=CC(COC2OC(C)C(OC(C)=O)C(OC)C2OC)C(CC)OC(=O)CC(O)C(C)C1OC1OC(C)C(O)C(N(C)C)C1O (centres unmarked) ; field requested: MIC
// result 4

---

# Tested on: Staphylococcus aureus S13E
# Test protocol: MIC, standard agar-dilution assay
# Format: cell-based
For each of the compounds below, state its MIC.

// query Looking for the measured MIC of CCC1OC(=O)CC(O)C(C)C(OC2OC(C)C(OC(C)=O)C(N(C)C)C2OC(C)=O)C(CCOc2ccccc2)CC(C)C(=O)C=CC(C)=CC1COC1OC(C)C(OC(C)=O)C(OC)C1OC (stereo not drawn) , can you help?
// result 4 µg/mL

// query Given CCC1OC(=O)CC(O)C(C)C(OC2OC(C)C(OC(C)=O)C(N(C)C)C2OC(C)=O)C(CCOc2ccccc2)CC(C)C(=O)C=CC(C)=CC1COC1OC(C)C(OC(=O)CCl)C(OC)C1OC (stereo not drawn) , state its recorded MIC.
// result 2 µg/mL

// query Requested read-out: MIC. Entry: CCC(C)CN(CC)CCC1CC(C)C(=O)C=CC(C)=CC(COC2OC(C)C(OC(C)=O)C(OC)C2OC)C(CC)OC(=O)CC(O)C(C)C1OC1OC(C)C(O)C(N(C)C)C1O (stereo not drawn)
// result 8 µg/mL

// query What measured MIC goes with CCC1OC(=O)CC(O)C(C)C(OC2OC(C)C(O)C(N(C)C)C2O)C(CCOc2ccccc2)CC(C)C(=O)C=CC(C)=CC1COC1OC(C)C(OC(=O)C(NC(=O)OC(C)(C)C)c2ccccc2)C(OC)C1OC (stereo not drawn) ?
// result 16 µg/mL

// query For the compound CCC1OC(=O)CC(O)C(C)C(OC2OC(C)C(O)C(N(C)C)C2O)C(CCN2CC(C)CC(C)C2)CC(C)C(=O)C=CC(C)=CC1COC1OC(C)C(OC(C)=O)C(OC)C1OC (stereo not drawn) , what MIC is on record?
// result 1 µg/mL

// query Entry under review: CCC1OC(=O)CC(O)C(C)C(OC2OC(C)C(O)C(N(C)C)C2O)C(CCOc2ccccc2)CC(C)C(=O)C=CC(C)=CC1COC1OC(C)C(OC(=O)C(N)c2ccccc2)C(OC)C1OC (stereo not drawn) . Reported MIC?
// result 1 µg/mL
